Data provenance is PubChem BioAssay AID1963440.

- Test system: NCI-H1417 complex spheroids, growth % test/control
- procedure summary: Anticancer human tumor NCI-H1417 cell line growth inhibition [Asc];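 further: spheroids exposed to compounds for 7 days; 100% = DMSO vehicle control wells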
- measurement setup: second compound 0.316 µM; first compound 0.0316 µM; hits give low values
outcome measure: viability, T/C (%)
Please give a number only; it is taken to be in %.

molecule | viability, T/C (%)
C#Cc1c(F)ccc2cc(O)cc(-c3ncc4c(N5CC6CCC(C5)N6)nc(OCC56CCCN5CC(F)C6)nc4c3F)c12 (configuration not stated) + CNC(C)C(=O)NC1CN(S(=O)(=O)c2cccc(S(=O)(=O)N3CCC4CCC(C(=O)NC(c5ccccc5)c5ccccc5)N4C(=O)C(NC(=O)C(C)NC)C3)c2)CCC2CCC(C(=O)NC(c3ccccc3)c3ccccc3)N2C1=O | 82.3

We next turn to a different molecule, shown below.
Query :: viability, T/C lookup needed for C=C(F)C(=O)N1CCN(c2nc(OCC3CCCN3C)nc3c2CCN(c2cccc4cccc(Cl)c24)C3)CC1CC#N (configuration not stated) + CNC(C)C(=O)NC1CN(S(=O)(=O)c2cccc(S(=O)(=O)N3CCC4CCC(C(=O)NC(c5ccccc5)c5ccccc5)N4C(=O)C(NC(=O)C(C)NC)C3)c2)CCC2CCC(C(=O)NC(c3ccccc3)c3ccccc3)N2C1=O , thanks.
Result :: 94.5

----------
- Test system: NCI-H1417 complex spheroids, growth % test/control
- procedure summary: Anticancer human tumor NCI-H1417 cell line growth inhibition [Asc];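 further: spheroids exposed to compounds for 7 days; 100% = DMSO vehicle control wells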
- measurement setup: second compound 0.3 µM; first compound 1 µM; hits give low values
outcome measure: viability, T/C (%)
Please give a number only; it is taken to be in %.

Record excerpt, results attached:
compound | endpoint value
CNC(C)C(=O)NC1CN(S(=O)(=O)c2cccc(S(=O)(=O)N3CCC4CCC(C(=O)NC(c5ccccc5)c5ccccc5)N4C(=O)C(NC(=O)C(C)NC)C3)c2)CCC2CCC(C(=O)NC(c3ccccc3)c3ccccc3)N2C1=O (centres undefined) + CCN1C(C(=O)NC23CCC(C(=O)O)(CC2)CC3)C(c2cccc(Cl)c2F)C2(C(=O)Nc3cc(Cl)ccc32)C12CCCCC2 | 100
C=C(F)C(=O)N1CCN(c2nc(OCC3CCCN3C)nc3c2CCN(c2cccc4cccc(Cl)c24)C3)CC1CC#N (centres undefined) + CCN1C(C(=O)NC23CCC(C(=O)O)(CC2)CC3)C(c2cccc(Cl)c2F)C2(C(=O)Nc3cc(Cl)ccc32)C12CCCCC2 | 87
O=C(c1ccc(F)c(F)c1Nc1ccc(I)cc1F)N1CC(O)([C@@H]2CCCCN2)C1 + CCN1C(C(=O)NC23CCC(C(=O)O)(CC2)CC3)C(c2cccc(Cl)c2F)C2(C(=O)Nc3cc(Cl)ccc32)C12CCCCC2 | 89.5

We next turn to a different compound, shown below.
Query :: viability, T/C lookup needed for CCN1CCN(Cc2ccc(Nc3ncc(F)c(-c4cc(F)c5nc(C)n(C(C)C)c5c4)n3)nc2)CC1 + CCN1C(C(=O)NC23CCC(C(=O)O)(CC2)CC3)C(c2cccc(Cl)c2F)C2(C(=O)Nc3cc(Cl)ccc32)C12CCCCC2 , thanks.
Result :: 81.2

----------
Listing of recorded viability, T/C by entry.
- Test system: NCI-H1417 complex spheroids, growth % test/control
- procedure summary: Anticancer human tumor NCI-H1417 cell line growth inhibition [Asc];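 further: spheroids exposed to compounds for 7 days; 100% = DMSO vehicle control wells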
- measurement setup: second compound 1 µM; first compound 0.01 µM; hits give low values
Please give a number only; it is taken to be in %.

compound | unit abbreviation | viability, T/C
COc1c(OCCCN2CCOCC2)ccc2c3n(c(=NC(=O)c4cnc(N)nc4)nc12)CCN3 + CNC(C)C(=O)NC1CN(S(=O)(=O)c2cccc(S(=O)(=O)N3CCC4CCC(C(=O)NC(c5ccccc5)c5ccccc5)N4C(=O)C(NC(=O)C(C)NC)C3)c2)CCC2CCC(C(=O)NC(c3ccccc3)c3ccccc3)N2C1=O | % | 99

We next turn to a different compound, shown below.
Query :: viability, T/C lookup needed for O=C(c1ccc(F)c(F)c1Nc1ccc(I)cc1F)N1CC(O)([C@@H]2CCCCN2)C1 + CNC(C)C(=O)NC1CN(S(=O)(=O)c2cccc(S(=O)(=O)N3CCC4CCC(C(=O)NC(c5ccccc5)c5ccccc5)N4C(=O)C(NC(=O)C(C)NC)C3)c2)CCC2CCC(C(=O)NC(c3ccccc3)c3ccccc3)N2C1=O , thanks.
Result :: 93.8
